B1: CDS2 (parent)
chain: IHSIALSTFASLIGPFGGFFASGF

- Variants of: B1
- procedureText: protein stability index of a GFP-peptide fusion (GPS, HEK-293T) (PSI 1-6); higher = more stable;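 also: lentivirally expressed fusions sorted by FACS into six bins by GFP to DsRed ratio, PSI derived from sequencing read proportions per bin multiplied by bin number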
- appliedConditions: c terminus: a fixed tail appended
protein stability index for assorted variants
// return just the number, without any unit appended

| polymerSequence | protein stability index |
| --- | --- |
| IHSIALSTFASLIGPFGGFFAVGF [S22V] | 2.54 |

Please give the measured protein stability index for this variant: IHSIALSTFASLIGPIGGFFASGF [F16I]
4.33

Please give the measured protein stability index for this variant: IHSIALSTFASLIGNFGGFFASGF [P15N]
2.82

Please give the measured protein stability index for this variant: IHSIALSTFASLIGLFGGFFASGF [P15L]
4.3

Please give the measured protein stability index for this variant: IHSIALSTFHSLIGPFGGFFASGF [A10H]
2.85

Please give the measured protein stability index for this variant: IHSIALTTFASLIGPFGGFFASGF [S7T]
2.71

Please give the measured protein stability index for this variant: IHCIALSTFASLIGPFGGFFASGF [S3C]
4.47

Please give the measured protein stability index for this variant: IHSIALSTFASLIGPHGGFFASGF [F16H]
2.84

Please give the measured protein stability index for this variant: IHSIALSTFASLIGPFKGFFASGF [G17K]
2.22

Please give the measured protein stability index for this variant: IHSIALSTFASLYGPFGGFFASGF [I13Y]
2.89

Please give the measured protein stability index for this variant: IHSIALSTFASCIGPFGGFFASGF [L12C]
2.74

Please give the measured protein stability index for this variant: IHSIALSTFASLIGPFGFFFASGF [G18F]
3.59

Please give the measured protein stability index for this variant: IHSIALSTFASLIGQFGGFFASGF [P15Q]
3.43

Please give the measured protein stability index for this variant: IHVIALSTFASLIGPFGGFFASGF [S3V]
3.02

Please give the measured protein stability index for this variant: IHSIALSTFASLIGPFGGFFASFF [G23F]
2.67

Please give the measured protein stability index for this variant: IHSIALSTFASLIGPFGGFFASGI [F24I]
2.91

Please give the measured protein stability index for this variant: IHSIALSTFASLIGPFGGFFATGF [S22T]
2.96

Please give the measured protein stability index for this variant: IHSIALSTQASLIGPFGGFFASGF [F9Q]
3.22

Please give the measured protein stability index for this variant: IHSIALSTFASLIGEFGGFFASGF [P15E]
3.88
